biological target: rat mGlu1a receptor (Rattus norvegicus, UniProt P23385); experiment: biochemical
Sequence (P23385 19-1199): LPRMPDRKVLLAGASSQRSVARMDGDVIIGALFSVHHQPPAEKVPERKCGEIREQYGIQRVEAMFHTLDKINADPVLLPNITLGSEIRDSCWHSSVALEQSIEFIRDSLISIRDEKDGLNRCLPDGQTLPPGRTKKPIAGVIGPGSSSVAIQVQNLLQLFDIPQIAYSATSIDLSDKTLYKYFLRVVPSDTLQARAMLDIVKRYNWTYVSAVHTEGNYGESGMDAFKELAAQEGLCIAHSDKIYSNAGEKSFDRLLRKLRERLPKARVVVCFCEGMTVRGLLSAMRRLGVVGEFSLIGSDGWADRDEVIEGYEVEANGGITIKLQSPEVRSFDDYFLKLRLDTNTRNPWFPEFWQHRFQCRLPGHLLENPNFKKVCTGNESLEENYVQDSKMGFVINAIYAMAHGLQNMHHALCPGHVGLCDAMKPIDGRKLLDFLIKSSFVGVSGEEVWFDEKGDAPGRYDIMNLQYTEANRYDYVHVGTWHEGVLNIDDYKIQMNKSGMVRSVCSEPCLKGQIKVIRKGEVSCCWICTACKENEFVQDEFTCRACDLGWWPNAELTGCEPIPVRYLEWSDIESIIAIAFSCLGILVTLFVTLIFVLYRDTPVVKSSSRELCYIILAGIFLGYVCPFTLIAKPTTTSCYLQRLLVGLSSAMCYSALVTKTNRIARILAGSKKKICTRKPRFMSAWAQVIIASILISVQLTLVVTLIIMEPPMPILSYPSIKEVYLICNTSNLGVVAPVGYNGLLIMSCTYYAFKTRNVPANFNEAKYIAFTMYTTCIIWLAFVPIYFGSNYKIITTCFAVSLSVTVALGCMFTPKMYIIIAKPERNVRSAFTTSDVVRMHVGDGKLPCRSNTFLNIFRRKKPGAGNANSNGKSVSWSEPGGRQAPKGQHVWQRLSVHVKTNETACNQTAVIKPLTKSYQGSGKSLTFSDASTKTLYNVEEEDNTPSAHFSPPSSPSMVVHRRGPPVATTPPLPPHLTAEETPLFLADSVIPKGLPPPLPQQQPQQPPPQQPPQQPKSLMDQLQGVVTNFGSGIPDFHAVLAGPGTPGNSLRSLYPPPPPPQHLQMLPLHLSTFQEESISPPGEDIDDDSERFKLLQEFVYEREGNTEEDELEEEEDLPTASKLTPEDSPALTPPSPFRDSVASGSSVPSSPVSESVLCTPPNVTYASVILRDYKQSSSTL
recordedMetric: pKd
Conceptually, pKd converts a concentration in mol/L into minus its log10.

Consider the compound O=C(Cc1ccccc1)c1ccc2nc3c(cc2c1)CCCO3 and give its measured pKd. 8.55
